# test.target: CDK4-NanoLuc fusion with CCND1 in 293T or 293 cells (Homo sapiens, UniProt P11802)
# Construct: host or cells: 293T (ATCC CRL-3216) or 293 (ATCC CRL-1573)
# Sequence (P11802 whole entry, the tested form may be a part): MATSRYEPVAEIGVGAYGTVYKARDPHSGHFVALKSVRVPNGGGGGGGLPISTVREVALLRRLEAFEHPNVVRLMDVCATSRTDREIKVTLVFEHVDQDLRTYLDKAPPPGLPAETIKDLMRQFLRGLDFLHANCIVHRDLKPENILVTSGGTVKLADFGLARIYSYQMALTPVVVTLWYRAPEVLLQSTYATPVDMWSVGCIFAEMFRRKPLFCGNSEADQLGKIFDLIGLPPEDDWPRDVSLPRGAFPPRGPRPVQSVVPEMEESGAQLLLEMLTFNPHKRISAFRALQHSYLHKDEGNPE
# Sequence (P24385 whole entry partner, the tested form may be a part): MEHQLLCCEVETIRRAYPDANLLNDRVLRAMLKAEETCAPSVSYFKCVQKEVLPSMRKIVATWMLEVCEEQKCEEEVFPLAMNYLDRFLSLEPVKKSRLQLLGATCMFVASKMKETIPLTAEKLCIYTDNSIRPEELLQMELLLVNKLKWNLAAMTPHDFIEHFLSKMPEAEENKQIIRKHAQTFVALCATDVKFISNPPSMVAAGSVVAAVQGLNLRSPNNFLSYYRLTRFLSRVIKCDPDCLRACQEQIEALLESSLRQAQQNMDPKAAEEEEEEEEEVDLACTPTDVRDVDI
# assay.info: NanoBRET Target Engagement (TE) Intracellular Kinase Assay, CDK4/CCND1
# Type: cell-based
# conditions.used: NanoBRET TE intracellular kinase assay, 2-hour incubation, read-out: NanoBRET-CDK4/D1 IC50
pIC50: −log10 of the molar value.
# reported pIC50; entries follow

COc1cc(O)c(C=O)c(OCC(=O)Nc2cc([C@H]3CC[C@@H](OC(=O)N4C5CCC(C5)N4C)C3)[nH]n2)c1 (stereo partly drawn) [Compound 272]
< 5.00

Q. // fetch pIC50 for COc1cc(O)c(C=O)c(OCC(=O)Nc2cc([C@H]3CC[C@@H](OC(=O)N4CC5(CCN5C)C4)C3)[nH]n2)c1 [Compound 191] ; system: CDK4-NanoLuc fusion with CCND1 in 293T or 293 cells (Homo sapiens, UniProt P11802)
A. < 5.00

Q. Give measured pIC50 for CCCCNC(=O)O[C@@H]1CC[C@H](c2cc(NC(=O)COc3cc(OC)cc(O)c3C=O)n[nH]2)C1 [Compound 181] (CDK4-NanoLuc fusion with CCND1 in 293T or 293 cells (Homo sapiens, UniProt P11802)).
A. 5.30

Q. System CDK4-NanoLuc fusion with CCND1 in 293T or 293 cells (Homo sapiens, UniProt P11802). Read-out pIC50. Item CCCNC(=O)O[C@@H]1CC[C@H](c2cc(NC(=O)COc3cc(OC)cc(O)c3C=O)n[nH]2)C1 [Compound 221] . Report value.
A. 5.28

Q. Print CDK4-NanoLuc fusion with CCND1 in 293T or 293 cells (Homo sapiens, UniProt P11802) pIC50 for COc1cc(O)c(C=O)c(OCC(=O)Nc2cc([C@H]3CC[C@@H](OC(=O)NN4CCCC4)C3)[nH]n2)c1 [Compound 217] .
A. < 5.00

Q. Give CDK4-NanoLuc fusion with CCND1 in 293T or 293 cells (Homo sapiens, UniProt P11802) pIC50 for the following molecule: CC(C)NC(=O)O[C@@H]1CC[C@H](c2cc(NC(=O)c3cn(-c4cccc(O)c4C=O)nc3C(F)F)n[nH]2)C1 [Compound 54]
A. < 5.00

From: patent US20250289789A1
